measured target: hPDE4B (Homo sapiens, UniProt Q07343)
Sequence (Q07343 whole entry): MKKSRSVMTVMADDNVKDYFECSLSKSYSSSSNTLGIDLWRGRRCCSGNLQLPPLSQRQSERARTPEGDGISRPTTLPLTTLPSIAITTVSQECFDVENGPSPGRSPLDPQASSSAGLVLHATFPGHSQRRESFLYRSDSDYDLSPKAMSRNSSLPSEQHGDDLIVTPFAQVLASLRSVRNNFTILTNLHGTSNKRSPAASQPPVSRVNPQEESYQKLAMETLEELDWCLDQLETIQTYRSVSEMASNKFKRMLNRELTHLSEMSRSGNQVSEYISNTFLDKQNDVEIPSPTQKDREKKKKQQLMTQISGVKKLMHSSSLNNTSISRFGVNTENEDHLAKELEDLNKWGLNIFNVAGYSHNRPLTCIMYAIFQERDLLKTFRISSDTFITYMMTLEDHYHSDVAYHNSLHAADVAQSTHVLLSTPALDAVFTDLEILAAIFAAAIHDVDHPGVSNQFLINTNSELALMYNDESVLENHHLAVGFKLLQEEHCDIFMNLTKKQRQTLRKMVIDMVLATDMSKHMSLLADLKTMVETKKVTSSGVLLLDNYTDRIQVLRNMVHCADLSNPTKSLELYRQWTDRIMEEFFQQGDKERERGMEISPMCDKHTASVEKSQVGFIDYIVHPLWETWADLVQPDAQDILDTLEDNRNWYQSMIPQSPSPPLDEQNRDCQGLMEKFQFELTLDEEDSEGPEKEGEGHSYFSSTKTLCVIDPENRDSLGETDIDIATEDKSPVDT
protocol description: In-vitro real-time enzyme-coupled spectrophotometric assay for PDE4 enzymes (hPDE4B)
pIC50: −log10 of the molar value. Where a name gives a salt, the structure may show the parent alone.
result type: pIC50

See these solved cases before continuing.
compound | pIC50
COc1ccc(Cn2cnc3c(Cl)nc(N)nc32)cc1-c1cccc([N+](=O)[O-])c1 [Example A-003] | 4.70 to 5.30
COc1ccc(Cn2cnc(C(=O)O)c2)c(F)c1-c1cccc(Cl)c1 [Example A-059] | 4.70 to 5.30
COc1ccc(Cc2cnc(N3CCC3C(=O)O)nc2)c(F)c1-c1cccc(Cl)c1 (centres unmarked) [Example A-049] | > 5.30

Kindly review the next compound as well.
Requested field: pIC50. Item: COc1ccc(Cc2ccc3cnc(C(=O)O)n3c2)c(F)c1-c1cccc(Cl)c1 [Example A-051, hydrochloride]
> 5.30
